Assay: small-molecule binders of probe aNOTCH3, primary screen, biochemical, small-molecule microarray, 635/667 nm fluorescence (AID 1120);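 also: probe is a biotin-tagged antibody raised against NOTCH3 rather than NOTCH3 protein; score merges spot fluorescence near 667 nm with spot signal to noise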
Settings: higher = more signal
# reported composite z-score; entries follow
Give a plain numeric answer without units written out.

Ask | Output measured composite z-score for this item: "O=C(CS)NCCCCCNC(=O)[C@@H]1C[C@@H]2C(=O)N[C@@H](Cc3ccccc3)C(=O)N2[C@@H]1c1ccc(O)cc1"
Reply | -0.0647

Ask | Output measured composite z-score for this item: "CC(C)=NOCc1ccc(-c2cc(-c3ccccc3)no2)cc1"
Reply | -0.0984

Ask | Output measured composite z-score for this item: "CC[C@@H](c1ccccc1)n1c(=O)n2n(c1=O)[C@H]1[C@H](O)[C@@H]3O[C@@H]3C(=NOCC(C)C)[C@H]1CC2"
Reply | -0.0189

Ask | Output measured composite z-score for this item: "COC(=O)[C@@H]1CCCN1C(=O)[C@@H](C)CO"
Reply | 0.0042

---

Assay: compound binding in COS7 lysate, probe aLAP1, primary screen, cell lysate, small-molecule microarray (AID 1124);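 also: lysate comes from COS7 cells expressing LAP1 and is applied at 0.3 µg/mL; score merges spot fluorescence near 667 nm with signal-to-noise over triplicate slides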
Details: probe aLAP1, fluorescence, higher = more signal
Would you mind sorting the entries by composite z-score according to these classes? one = under 0.02, two = from 0.02 up to 0.4, three = 0.4 and over

[
  {
    "COMPOUND": "CCOC(=O)[C@H](Cc1ccccc1)NC(=O)CCC1CC(OC(=O)NCc2ccc3c(c2)OCO3)CC2(CCCC(COC(=O)NCC3CCCCC3)O2)O1 (some centres undefined)",
    "ASSIGNED_CATEGORY": "one"
  },
  {
    "COMPOUND": "C[C@H](c1ccccc1)N1C(=O)[C@H]2[C@@H]3C(=CC[C@H]2C1=O)C(=O)[C@H]1O[C@H]1[C@H]3O",
    "ASSIGNED_CATEGORY": "two"
  },
  {
    "COMPOUND": "O=C1[C@H]2[C@H]3[C@H](O)[C@H](O)CC(=NOC[C@@H](O)COCc4ccco4)[C@H]3CC[C@H]2C(=O)N1Cc1ccc2c(c1)OCO2",
    "ASSIGNED_CATEGORY": "two"
  },
  {
    "COMPOUND": "CCN1C(=O)[C@H]2[C@H]3[C@H](O)[C@H](O)CC(=NOC(C)CN4CCCCc5nc(C)c(C)cc54)[C@@H]3CC[C@H]2C1=O (some centres undefined)",
    "ASSIGNED_CATEGORY": "one"
  },
  {
    "COMPOUND": "Cc1ccc(S[C@]2(C(=O)NCC(F)(F)F)CC(=O)N(Cc3ccccc3Cl)[C@@H]2c2ccc(CO)cc2I)cc1",
    "ASSIGNED_CATEGORY": "one"
  }
]

Ask | Tag the class for "Cc1cc(C)c(-c2cc([C@H](C)ON=C3[C@H]4CCn5c(=O)n(-c6ccccc6)c(=O)n5[C@H]4[C@H](O)[C@@H]4O[C@H]34)on2)c(C)c1"
Reply | two

---

Target: Fibroblast growth factor 2 (Homo sapiens) (UniProt P09038)
Sequence (P09038 whole entry, looked up): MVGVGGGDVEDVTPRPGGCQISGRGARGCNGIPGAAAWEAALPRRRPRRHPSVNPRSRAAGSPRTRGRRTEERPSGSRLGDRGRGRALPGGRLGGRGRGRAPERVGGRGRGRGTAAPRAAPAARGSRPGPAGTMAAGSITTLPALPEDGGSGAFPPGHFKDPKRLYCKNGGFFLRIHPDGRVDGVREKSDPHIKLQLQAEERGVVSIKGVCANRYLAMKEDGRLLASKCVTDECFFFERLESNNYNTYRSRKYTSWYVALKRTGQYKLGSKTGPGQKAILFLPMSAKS
Assay: FGF2 binders on small-molecule microarrays, primary screen, biochemical, small-molecule microarray, 635/667 nm fluorescence (AID 1133)
Conditions: small-molecule microarray binding, FGF2, fluorescence 635/667; higher = more signal
# reported composite z-score; entries follow
Give a plain numeric answer without units written out.

[
  {
    "MOLECULE": "N#Cc1ccc(NN2C(C(O)c3cc(C(F)(F)F)cc(C(F)(F)F)c3)C=CC3C(=O)N(c4ccccc4)C(=O)C32)cc1 (configuration not stated)",
    "composite z-score": -0.477
  },
  {
    "MOLECULE": "O=C1[C@H]2[C@H]3[C@H](O)[C@H](O)CC(=NOCc4ccccc4)[C@@H]3CC[C@H]2C(=O)N1C1CCCCC1",
    "composite z-score": -0.45
  },
  {
    "MOLECULE": "CN1C(=O)C2C=CC(C(O)c3ccc(Br)cc3)N(N(c3ccccc3)c3ccccc3)C2C1=O (configuration not stated)",
    "composite z-score": -0.538
  },
  {
    "MOLECULE": "C#C[C@@H]1Oc2ccccc2S(=O)(=O)N2CCC[C@H]12",
    "composite z-score": 0.155
  },
  {
    "MOLECULE": "CCN1C(=O)[C@H]2[C@H]3[C@H](O)[C@H](O)CC(=NOC[C@@H](C)[C@H](OCc4ccccc4)C(C)C)[C@@H]3CC[C@H]2C1=O",
    "composite z-score": -0.109
  },
  {
    "MOLECULE": "C/C=C\\[C@@H](NCc1ccccc1Br)[C@@H](O)Cc1ccccc1",
    "composite z-score": -1.4
  }
]

// moving on: another record for composite z-score
Ask | Output measured composite z-score for this item: "C[C@H](c1ccccc1)N1C(=O)[C@H]2[C@H]3[C@H](O)[C@H](O)CC(=O)[C@@H]3CC[C@H]2C1=O"
Reply | 0.51
